All values here come from paper PMC7961380.

Assay overview: Metabolic stability, pooled human liver microsome incubations
Protocol conditions: from pHLM CLint, well-stirred model with plasma fu, Q 21 mL min^−1 kg^−1

[
  {
    "Compound": "C=CCCCn1cc(C(=O)N[C@H](C(=O)OC)C(C)C)c2ccccc21 [(S)-AMB-4en-PICA (7)]",
    "Predicted In Vivo Hepatic Clearance, CLH [mL/min/kg]": 9.29
  },
  {
    "Compound": "COC(=O)[C@H](NC(=O)c1cn(CCCCCF)c2ccccc12)C(C)(C)C [(R)-5F-MDMB-PICA (3)]",
    "Predicted In Vivo Hepatic Clearance, CLH [mL/min/kg]": 7.22
  },
  {
    "Compound": "COC(=O)[C@H](NC(=O)c1nn(CCCCCF)c2ccccc12)C(C)(C)C [(R)-5F-MDMB-PINACA (2)]",
    "Predicted In Vivo Hepatic Clearance, CLH [mL/min/kg]": 6.52
  },
  {
    "Compound": "C=CCCCn1cc(C(=O)N[C@@H](C(=O)OC)C(C)C)c2ccccc21 [(R)-AMB-4en-PICA (7)]",
    "Predicted In Vivo Hepatic Clearance, CLH [mL/min/kg]": 11.8
  }
]

###

Tested on: pooled human cryopreserved hepatocytes (pHHeps)
Assay overview: Metabolic stability, pooled human cryopreserved hepatocyte incubations
Protocol conditions: pHHeps, 15 min
Mark 1.0 for % parent compound remaining, Average under 50%, 0.0 if at or over.

[
  {
    "Compound": "COC(=O)[C@H](NC(=O)c1nn(CCCCCF)c2ccccc12)C(C)(C)C [(R)-5F-MDMB-PINACA (2)]",
    "Class label": 1.0
  },
  {
    "Compound": "COC(=O)C(NC(=O)c1nn(Cc2ccc(F)cc2)c2ccccc12)C(C)C (stereo in doubt) [(R)-AMB-FUBINACA (1)]",
    "Class label": 1.0
  },
  {
    "Compound": "C=CCCCn1cc(C(=O)N[C@@H](C(=O)OC)C(C)(C)C)c2ccccc21 [(R)-MDMB-4en-PICA (12)]",
    "Class label": 0.0
  },
  {
    "Compound": "C=CCCCn1nc(C(=O)N[C@H](C(=O)OC)C(C)(C)C)c2ccccc21 [(S)-MDMB-4en-PINACA (5)]",
    "Class label": 1.0
  },
  {
    "Compound": "COC(=O)[C@@H](NC(=O)c1cn(CCCCCF)c2ccccc12)C(C)(C)C [(S)-5F-MDMB-PICA (3)]",
    "Class label": 0.0
  },
  {
    "Compound": "C=CCCCn1cc(C(=O)N[C@H](C(=O)OC)C(C)C)c2ccccc21 [(S)-AMB-4en-PICA (7)]",
    "Class label": 1.0
  },
  {
    "Compound": "CCOc1ccc2ccc(=O)oc2c1 [7-ethoxycoumarin, reference compound]",
    "Class label": 0.0
  },
  {
    "Compound": "COC(=O)[C@@H](NC(=O)c1nn(CCCCF)c2ccccc12)C(C)(C)C [(S)-4F-MDMB-BINACA (4)]",
    "Class label": 0.0
  },
  {
    "Compound": "CC(C)[C@H](NC(=O)c1nn(Cc2ccc(F)cc2)c2ccccc12)C(N)=O [(S)-AB-FUBINACA (8)]",
    "Class label": 0.0
  },
  {
    "Compound": "O=c1ccc2ccc(O)cc2o1 [7-hydroxycoumarin, reference compound]",
    "Class label": 0.0
  },
  {
    "Compound": "C=CCCCn1cc(C(=O)N[C@@H](C(=O)OC)C(C)C)c2ccccc21 [(R)-AMB-4en-PICA (7)]",
    "Class label": 1.0
  },
  {
    "Compound": "COC(=O)C(NC(=O)c1nn(CCCCCF)c2ccccc12)C(C)C (stereo in doubt) [(R)-5F-AMB-PINACA (10)]",
    "Class label": 1.0
  },
  {
    "Compound": "CC(C)[C@@H](NC(=O)c1nn(Cc2ccc(F)cc2)c2ccccc12)C(N)=O [(R)-AB-FUBINACA (8)]",
    "Class label": 0.0
  },
  {
    "Compound": "COC(=O)[C@@H](NC(=O)c1nn(Cc2ccc(F)cc2)c2ccccc12)C(C)C [(S)-AMB-FUBINACA (1)]",
    "Class label": 1.0
  },
  {
    "Compound": "COC(=O)[C@@H](NC(=O)c1cn(CC2CCCCC2)c2ccccc12)C(C)C [(S)-AMB-CHMICA (9)]",
    "Class label": 1.0
  },
  {
    "Compound": "COC(=O)[C@@H](NC(=O)c1nn(CCCCCF)c2ccccc12)C(C)(C)C [(S)-5F-MDMB-PINACA (2)]",
    "Class label": 1.0
  }
]
